src = ChEMBL document CHEMBL4425112

Biological target: Carbonic anhydrase 9 (Homo sapiens)
Test: Inhibition of human carbonic anhydrase 9 catalytic site preincubated for 15 mins by stopped flow CO2 hydration assay
MEASUREMENT TYPE: pKi
# pKi is unitless: minus log10 of the molar concentration; print number only

Prompt line: Find the measured pKi of `CC(=O)Nc1ccc2c(c1)C(=O)NS2(=O)=O` and report it.
Response line: 7.52

Prompt line: Find the measured pKi of `O=C(Nc1ccc2c(c1)C(=O)NS2(=O)=O)c1cccc(Cl)c1` and report it.
Response line: 7.17

Prompt line: Find the measured pKi of `COc1ccc(C(=O)Nc2ccc3c(c2)S(=O)(=O)NC3=O)cc1` and report it.
Response line: 6.69

Prompt line: Find the measured pKi of `COc1ccc(C(=O)Nc2ccc3c(c2)C(=O)NS3(=O)=O)cc1` and report it.
Response line: 7.13

Prompt line: Find the measured pKi of `O=C(Nc1ccc2c(c1)S(=O)(=O)NC2=O)c1cccc(Br)c1` and report it.
Response line: 6.18

Prompt line: Find the measured pKi of `O=C(Nc1cccc2c1C(=O)NS2(=O)=O)c1ccccc1` and report it.
Response line: 6.65

Prompt line: Find the measured pKi of `O=C(Nc1ccc2c(c1)C(=O)NS2(=O)=O)c1ccc(Cl)cc1` and report it.
Response line: 7.06

Prompt line: Find the measured pKi of `O=C(Nc1ccc2c(c1)S(=O)(=O)NC2=O)c1ccc(F)cc1` and report it.
Response line: 6.27

====

The next entries give measured Ki for Carbonic anhydrase 7 (Homo sapiens, UniProt P43166).

- CHEMICAL SMILES: "CC(=O)Nc1ccc2c(c1)C(=O)NS2(=O)=O"
  Ki: "> 50 µM"

// switching to the query molecule
Prompt line: Find the measured Ki of `O=C(Nc1cccc2c1C(=O)NS2(=O)=O)c1cccc(Br)c1` and report it.
Response line: > 50 µM

====

The next entries give measured log10(Ki) for Carbonic anhydrase 2 (Homo sapiens, UniProt P00918).
The common logarithm of Ki in µM is what is listed.

// solved cases for log10(Ki) follow
- CHEMICAL SMILES: "O=C(Nc1ccc2c(c1)S(=O)(=O)NC2=O)c1ccc(Cl)cc1"
  SUBJECT OF TEST: "Carbonic anhydrase 2 (Homo sapiens, UniProt P00918)"
  log10(Ki): 0.67
- CHEMICAL SMILES: "CC(=O)Nc1ccc2c(c1)C(=O)NS2(=O)=O"
  SUBJECT OF TEST: "Carbonic anhydrase 2 (Homo sapiens, UniProt P00918)"
  log10(Ki): 0.17
- CHEMICAL SMILES: "O=C(Nc1ccc2c(c1)C(=O)NS2(=O)=O)c1cccc(Br)c1"
  SUBJECT OF TEST: "Carbonic anhydrase 2 (Homo sapiens, UniProt P00918)"
  log10(Ki): 0.59

// switching to the query compound
Prompt line: Please tell me the measured log10(Ki) for `COc1ccc(C(=O)Nc2ccc3c(c2)C(=O)NS3(=O)=O)cc1` ; system: Carbonic anhydrase 2 (Homo sapiens, UniProt P00918).
Response line: -0.10

====

# maps each entry to its Ki
Molecular target: UniProt:Q16790
Experiment: Inhibition of human carbonic anhydrase 9 catalytic site preincubated for 15 mins by stopped flow CO2 hydration assay
Write the value in nM as a bare number.

- CHEMICAL SMILES: "O=C(Nc1ccc2c(c1)S(=O)(=O)NC2=O)c1cccc(Cl)c1"
  REPORTED RESULT: 233
- CHEMICAL SMILES: "O=C(Nc1cccc2c1C(=O)NS2(=O)=O)c1cccc(Br)c1"
  REPORTED RESULT: 31.2

// switching to the query compound
Prompt line: Please tell me the measured Ki for `O=C(Nc1ccc2c(c1)C(=O)NS2(=O)=O)c1ccc(F)cc1` ; system: UniProt:Q16790.
Response line: 27.2
